# system.name: UniProtKB P0ABQ4
observation.type: IC50 (µM)
Answers are plain numbers, in µM.

Task: Tell me the measured IC50 of CN(CCOc1ccc(C[C@H](Nc2ccccc2C(=O)c2ccccc2)C(=O)O)cc1)c1ccccn1 , please.
Output: 7.9

Cited source: patent US12669497B2
